Measured MHK, listed per entry.
- Tested on: Escherichia coli PEG 10-2-81
- procedure-text: MHK against further strains (Table 2)
- Format: cell-based
- condition-description: Nr. 10 Escherichia coli PEG 10-2-81, clinical isolate
observed-property: MHK (mg/L)

INSERT INTO results (compound, quantity_unit, value_observed) VALUES
  ('COc1c(NC(=O)c2ccc(NC(=O)c3ccc(NC(=O)C(Cc4c[nH]nn4)NC(=O)c4ccc(NC(=O)/C(C)=C/c5ccc(O)cc5)cc4)cc3)c(OC)c2O)ccc(C(=O)O)c1O [Compound 3, L-Azahis-Albicidin]', 'mg/L', 0.063),
  ('COc1c(NC(=O)c2ccc(NC(=O)c3ccc(NC(=O)[C@@H](CN(C)C)NC(=O)c4ccc(NC(=O)/C(C)=C/c5ccc(O)cc5)cc4)cc3)c(OC)c2O)ccc(C(=O)O)c1O [Compound 16, D-DMDAP-Albicidin]', 'mg/L', 32),
  ('COc1c(NC(=O)c2ccc(NC(=O)c3ccc(NC(=O)[C@H](CN(C)C)NC(=O)c4ccc(NC(=O)/C(C)=C/c5ccc(O)cc5)cc4)cc3)c(OC)c2O)ccc(C(=O)O)c1O [Compound 2, L-DMDAP-Albicidin]', 'mg/L', 32);

====

Listed here: items and their measured MIC.
- Tested on: E. coli DSM 1116
- procedure-text: Microdilution assay, MIC
- Assay type: cell-based
- condition-description: Escherichia coli, DSM1116, 20 h, read-out: MIC E. coli DSM1116
observed-property: MIC (µg/mL)

INSERT INTO results (molecule, test_system, value_observed) VALUES
  ('COc1c(NC(=O)c2ccc(NC(=O)c3ccc(NC(=O)[C@@H](CN(C)C)NC(=O)c4ccc(NC(=O)/C(C)=C/c5ccc(O)cc5)cc4)cc3)c(OC)c2O)ccc(C(=O)O)c1O [Compound 16, D-DMDAP-Albicidin]', 'E. coli DSM 1116', 500),
  ('C#CCOc1ccc(/C=C(\C)C(=O)Nc2ccc(C(=O)NC(CC3(C)N=N3)C(=O)Nc3ccc(C(=O)Nc4ccc(C(=O)Nc5ccc(C(=O)O)c(O)c5OC)c(O)c4OC)cc3)cc2)cc1 (stereo not drawn) [Compound 10]', 'E. coli DSM 1116', 63),
  ('C#CCOc1ccc(C(=O)Nc2ccc(C(=O)NC(CC3(C)N=N3)C(=O)Nc3ccc(C(=O)Nc4ccc(C(=O)Nc5ccc(C(=O)O)c(O)c5OC)c(O)c4OC)cc3)cc2)cc1 (stereo not drawn) [Compound 11]', 'E. coli DSM 1116', 63);
